Origin of measurements: the supplement of paper PMC7724964

Biological target: T1, SPSB2 26-221 SPRY (domain begin residue: 26, domain end residue: 221), Q99619
T1 chain: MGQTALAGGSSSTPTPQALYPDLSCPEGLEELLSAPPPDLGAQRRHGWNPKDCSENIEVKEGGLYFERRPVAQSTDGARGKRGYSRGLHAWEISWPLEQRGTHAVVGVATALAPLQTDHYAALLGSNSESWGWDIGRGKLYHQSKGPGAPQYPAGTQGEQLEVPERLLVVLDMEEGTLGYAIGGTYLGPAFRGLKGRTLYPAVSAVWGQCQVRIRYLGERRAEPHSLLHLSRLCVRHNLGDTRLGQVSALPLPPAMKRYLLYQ
Assay: phage ELISA signal ratio (GST-PRM binding over GST background); higher = stronger binding of peptide-phage to the PRM
Endpoint: phage ELISA signal ratio
Give the figure only, with no unit attached.

Would you please look over these solved cases?
> print(dat)
             binder  assay.result
1  PWHARDMNGNWTQRIE          12.3
2  DKYWPVDPNNNMPRFG          37.4
3  YYLDENQNWISEGFLW          12.1

Which phage ELISA signal ratio reading was recorded for the binder PEFLDENNNVDVGHTW ?
38.3

Which phage ELISA signal ratio reading was recorded for the binder YPQWLASSRGEMNNNI ?
36.2

Which phage ELISA signal ratio reading was recorded for the binder DFNNNTGPRLAAETIV ?
11.5

Which phage ELISA signal ratio reading was recorded for the binder KQDYLNVTDWNNNAVM ?
44.7
